molecular target: huNav1.7α + β1 (human); experiment: cell-based or functional assay
measured-property: Qpatch IC50 (µM)

(a) F0103362B08 (parental)-FLAG-HIS6 (VHH) VHH: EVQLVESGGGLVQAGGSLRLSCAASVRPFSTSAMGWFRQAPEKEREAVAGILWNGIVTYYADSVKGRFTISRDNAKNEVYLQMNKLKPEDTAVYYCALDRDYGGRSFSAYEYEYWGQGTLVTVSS
(b) F0103454D07 (parental)-FLAG-HIS6 (VHH) VHH: EVQLVESGGGLVQPGGSLRLSCVASGGIININYIAWYRQTPGKQRDLVARISSDDTIKYGDSVKGRFAMSRDKVKNMVHLQMNSLTTEDTGVYVCSALITPWTGDTRTYWGRGTLVTVSS
(c) F0103265B04-FLAG3-HIS6 (VHH) VHH: EVQLVESGGGLVQPGGSLRLSCAAPSFIFSNNYMEWYRQAPGKQRDWVARITGRGNTNYLDSVKGRFTISRDDAKNTVYLEIDSLKPEDTAVYYCSALWYGGRAWGKGTLVTVSS
(d) F0103464B09 (parental)-FLAG-HIS6 (VHH, also called F010346B09) VHH: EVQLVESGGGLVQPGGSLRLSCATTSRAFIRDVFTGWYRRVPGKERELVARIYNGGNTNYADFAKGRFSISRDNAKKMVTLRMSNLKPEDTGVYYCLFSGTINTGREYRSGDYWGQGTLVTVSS
Quick one: which order do the items above go in by Qpatch IC50, smallest to largest? In your reply, arrange the labels in the requested order.
a, d, b, c
(a: 0.001 µM, d: 0.007 µM, b: 0.038 µM, c: 0.12 µM)
